Where do these numbers come from? They come from patent US6770596B1.

System: field corn (Zea mays L., var. Dekalb 535, CORN)
assay remarks: Post-emerge test, crop damage field corn
Type: in vivo
setup conditions: post-emerge, 250 g ai/ha, 14 days after application, rating scale 0-100 (0 no damage, 100 complete death)
readout label: Post-emerge crop damage CORN (phytotoxicity rating)
No unit in the answer, only the number.

Prompt: Return reported Post-emerge crop damage CORN (phytotoxicity rating); argument: CCC1C(=O)Nc2c3c(cc(F)c2-n2nc(C)n(C(F)F)c2=O)OCC(=O)N31 (stereo not shown)
Completion: 0

Prompt: Return reported Post-emerge crop damage CORN (phytotoxicity rating); argument: O=C1Nc2c(-c3ncc(C(F)(F)F)cc3Cl)c(F)cc3c2N(C(=O)CO3)C1c1ccccc1 (stereo not shown)
Completion: 10

Prompt: Return reported Post-emerge crop damage CORN (phytotoxicity rating); argument: CC1C(=O)Nc2c(-c3nn(C)c(C(F)(F)F)c3Cl)c(F)cc3c2N1C(=O)C(C)(C)O3 (stereo not shown)
Completion: 0

Prompt: Return reported Post-emerge crop damage CORN (phytotoxicity rating); argument: Cc1nn(-c2c(F)cc3c4c2NC(=O)CN4C(=O)CO3)c(=O)n1C(F)F
Completion: 0

* * *

System: ivyleaf morningglory (Ipomoea hederacea, IPH)
assay remarks: Pre-emerge test, ivyleaf morningglory
Assay type: in vivo
setup conditions: 250 g ai/ha, 14 days after application, rating scale 0-100 (0 no damage, 100 complete death)
readout label: Pre-emerge Herbicidal Activity IPH (phytotoxicity rating)
No unit in the answer, only the number.

Prompt: Return reported Pre-emerge Herbicidal Activity IPH (phytotoxicity rating); argument: CC1Oc2cc(F)c(-c3nn(C)c(C(F)(F)F)c3Cl)c3c2N(C1=O)C(C(C)C)C(=O)N3 (mixture of isomers)
Completion: 95

Prompt: Return reported Pre-emerge Herbicidal Activity IPH (phytotoxicity rating); argument: C[C@H]1Oc2cc(F)c(-c3nn(C)c(OC(F)F)c3Cl)c3c2N(CC(=O)N3)C1=O
Completion: 100

Prompt: Return reported Pre-emerge Herbicidal Activity IPH (phytotoxicity rating); argument: C[C@H]1Oc2cc(F)c(-c3nn(C)c(C(F)(F)F)c3Cl)c3c2N(CC(=O)N3)C1=O
Completion: 100

Prompt: Return reported Pre-emerge Herbicidal Activity IPH (phytotoxicity rating); argument: Cn1nc(-c2c(F)cc3c4c2NC(=O)C(c2ccccc2)N4C(=O)CO3)c(Cl)c1OC(F)F (stereo not shown)
Completion: 70

* * *

Test system: soybean (Glycine max L., var. Pella 86, SOY)
assay remarks: Post-emerge test, crop damage soybean
Type: in vivo
setup conditions: var. Pella 86, Glycine max (soybean), in vivo, 14 days
Description: A standard greenhouse herbicide activity screening system was used to evaluate the herbicidal efficacy and crop safety of these test compounds. […] At 14 days after application of the test materials, phytotoxicity ratings were recorded. […]
readout label: Post-emerge crop damage SOY (phytotoxicity rating)

Prompt: Return reported Post-emerge crop damage SOY (phytotoxicity rating); argument: Cn1nc(-c2c(F)cc3c4c2NC(=O)CN4C(=O)C(C)(C)O3)c(Cl)c1C(F)(F)F
Completion: 0

Prompt: Return reported Post-emerge crop damage SOY (phytotoxicity rating); argument: CC1C(=O)Nc2c(-c3nn(C)c(OC(F)F)c3Cl)c(F)cc3c2N1C(=O)CO3 (stereo not shown)
Completion: 100

Prompt: Return reported Post-emerge crop damage SOY (phytotoxicity rating); argument: Cn1nc(-c2c(F)cc3c4c2NC(=O)C(C)(C)N4C(=O)CO3)c(Cl)c1C(F)(F)F
Completion: 100

Prompt: Return reported Post-emerge crop damage SOY (phytotoxicity rating); argument: Cn1nc(-c2c(F)cc3c4c2NC(=O)CN4C(=O)CO3)c(Cl)c1OC(F)F
Completion: 100

Prompt: Return reported Post-emerge crop damage SOY (phytotoxicity rating); argument: Cn1nc(-c2c(F)cc3c4c2NC(=O)CN4C(=O)CO3)c(Cl)c1C(F)(F)F
Completion: 100

Prompt: Return reported Post-emerge crop damage SOY (phytotoxicity rating); argument: C[C@H]1Oc2cc(F)c(-c3nn(C)c(C(F)(F)F)c3Cl)c3c2N(CC(=O)N3)C1=O
Completion: 65

Prompt: Return reported Post-emerge crop damage SOY (phytotoxicity rating); argument: C[C@H]1Oc2cc(F)c(-c3nn(C)c(OC(F)F)c3Cl)c3c2N(CC(=O)N3)C1=O
Completion: 75
